Reported DC50 is given for each of the following compounds.
Target: B-RAF G466V (Homo sapiens, UniProt P15056, G466V)
Construct: expressed in transfected cells; host or cells: T-Rex 293 cells (Invitrogen #R71007)
Sequence (P15056 whole entry G466V): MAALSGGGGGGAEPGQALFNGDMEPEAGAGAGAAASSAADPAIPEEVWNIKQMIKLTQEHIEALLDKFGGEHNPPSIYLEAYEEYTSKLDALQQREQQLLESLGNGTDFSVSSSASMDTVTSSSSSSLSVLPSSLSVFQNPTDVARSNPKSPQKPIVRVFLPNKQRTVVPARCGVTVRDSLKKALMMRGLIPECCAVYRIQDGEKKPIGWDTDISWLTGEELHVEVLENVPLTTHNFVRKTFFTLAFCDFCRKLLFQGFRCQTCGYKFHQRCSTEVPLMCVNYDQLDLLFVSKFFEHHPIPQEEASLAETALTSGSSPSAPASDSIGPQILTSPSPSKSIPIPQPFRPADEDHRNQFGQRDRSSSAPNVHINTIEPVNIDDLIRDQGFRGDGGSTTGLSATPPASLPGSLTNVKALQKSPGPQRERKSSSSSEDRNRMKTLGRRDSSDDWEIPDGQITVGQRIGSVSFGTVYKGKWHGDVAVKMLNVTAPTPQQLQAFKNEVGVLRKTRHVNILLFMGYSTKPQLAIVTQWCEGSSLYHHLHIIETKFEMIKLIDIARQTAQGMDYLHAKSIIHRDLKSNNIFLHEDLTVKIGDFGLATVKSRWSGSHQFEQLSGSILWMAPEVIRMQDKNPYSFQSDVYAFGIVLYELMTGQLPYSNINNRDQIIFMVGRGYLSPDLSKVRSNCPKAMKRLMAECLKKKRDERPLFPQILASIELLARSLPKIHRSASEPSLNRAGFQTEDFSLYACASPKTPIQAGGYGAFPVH
Experiment: Target protein degradation, assay D: T-Rex 293 cells, HA-BRAF_G466V, 384 well format
Type: cell-based
Details: Assay D, T-Rex 293 HA-BRAF_G466V cells, 24 hours, Examples 83-269

Here's what some known entries look like.
compound	result
COc1cc(N2CCN(c3ccc(-n4cnc5ccc(Oc6c(F)ccc(NS(=O)(=O)N7CC[C@@H](F)C7)c6C#N)cc5c4=O)cn3)CC2)cc2c1C(=O)N(C1CCC(=O)NC1=O)C2=O (some centres unmarked)	> 30 nM
Cn1c(=O)n(C2CCC(=O)NC2=O)c2cccc(N3CC(CN4CCN(c5ccc(-n6cnc7ccc(Oc8c(F)ccc(NS(=O)(=O)N9CC[C@@H](F)C9)c8C#N)cc7c6=O)cc5)CC4)C3)c21 (some centres unmarked)	1 to 10 nM
COc1cc(N2CCN(CC3CCN(c4ccc(-n5cnc6ccc(Oc7c(F)ccc(NS(=O)(=O)N8CC[C@@H](F)C8)c7C#N)cc6c5=O)cn4)CC3)CC2)cc2c1C(=O)N(C1CCC(=O)NC1=O)C2=O (some centres unmarked)	1 to 10 nM
N#Cc1c(NS(=O)(=O)N2CC[C@@H](F)C2)ccc(F)c1Oc1ccc2ncn(-c3ccc(N4CCN([C@H]5C[C@H](OC6CCN(c7ccc8c(c7)CN(C7CCC(=O)NC7=O)C8=O)CC6)C5)CC4)cc3)c(=O)c2c1 (some centres unmarked)	1 to 10 nM

Turning to the following compound.
B-RAF G466V (Homo sapiens, UniProt P15056, G466V) DC50 of N#Cc1c(NS(=O)(=O)N2CC[C@@H](F)C2)ccc(F)c1Oc1ccc2ncn(-c3ccc(N4CCC(CN5CCC(c6ccc7c(c6)CN([C@H]6CCC(=O)NC6=O)C7=O)CC5)C4)cc3)c(=O)c2c1 (some centres unmarked) is 1 to 10 nM

---

Biological target: B-RAF G466V (Homo sapiens, UniProt P15056, G466V)
Construct: expressed in transfected cells; host or cells: T-Rex 293 cells (Invitrogen #R71007)
Assay: Target protein degradation, assay D: T-Rex 293 cells, HA-BRAF_G466V, 384 well format
Assay type: cell-based
Conditions: T-REx-293, Assay D, T-Rex 293 HA-BRAF_G466V cells, 24 hours, Examples 83-269
observationType: Dmax

compound	Dmax
Cc1c(N2CCC(CN3CCN(c4ccc(-n5cnc6ccc(Oc7c(F)ccc(NS(=O)(=O)N8CC[C@@H](F)C8)c7C#N)cc6c5=O)cc4)CC3)CC2)ccc2c1CN(C1CCC(=O)NC1=O)C2=O (stereo partly drawn) [Example 104]	35 to 70%

N#Cc1c(NS(=O)(=O)N2CC[C@@H](F)C2)ccc(F)c1Oc1ccc2ncn(-c3ccc(N4CCC(c5ccc6c(c5)CN(C5CCC(=O)NC5=O)C6=O)CC4)nc3)c(=O)c2c1 (stereo partly drawn) [Example 136] has a reported Dmax of 35 to 70%

Record CC(=O)N(CC1CCN(c2ccc(-n3cnc4ccc(Oc5c(F)ccc(NS(=O)(=O)N6CC[C@@H](F)C6)c5C#N)cc4c3=O)cc2)CC1)[C@H]1C[C@@H](Oc2ccc3c(c2)CN([C@H]2CCC(=O)NC2=O)C3=O)C1 [Example 268] . Reported Dmax: ≤ 35%

Kindly note the recorded Dmax for Cc1cc(N2CC(CN3CCN(c4ccc(-n5cnc6ccc(Oc7c(F)ccc(NS(=O)(=O)N8CC[C@@H](F)C8)c7C#N)cc6c5=O)cc4)CC3)C2)cc2c1C(=O)N([C@H]1CCC(=O)NC1=O)C2 [Example 234] , which is 35 to 70%

Please fill in: Dmax reported for Cn1c(=O)n(C2CCC(=O)NC2=O)c2cccc(N3CCC(CN4CCN(c5ccc(-n6cnc7ccc(Oc8c(F)ccc(NS(=O)(=O)N9CC[C@@H](F)C9)c8C#N)cc7c6=O)cc5)CC4)CC3)c21 (stereo partly drawn) [Example 98] = 35 to 70%

What the record says about COCCN(CC1CCN(c2ccc(-n3cnc4ccc(Oc5c(F)ccc(NS(=O)(=O)N6CC[C@@H](F)C6)c5C#N)cc4c3=O)cc2)CC1)[C@H]1C[C@@H](Oc2ccc3c(c2)CN([C@H]2CCC(=O)NC2=O)C3=O)C1 [Example 267] : Dmax is 35 to 70%

---

Target: B-RAF G466V (Homo sapiens, UniProt P15056, G466V)
Construct: expressed in transfected cells; host or cells: T-Rex 293 cells (Invitrogen #R71007)
Assay: Target protein degradation, assay D: T-Rex 293 cells, HA-BRAF_G466V, 384 well format
Assay type: cell-based
Conditions: T-REx-293, Assay D, T-Rex 293 HA-BRAF_G466V cells, 24 hours, Examples 83-269
observationType: Dmax

Below are worked cases with known answers.
compound	result
N#Cc1c(NS(=O)(=O)N2CC[C@@H](F)C2)ccc(F)c1Oc1ccc2ncn(-c3ccn(C4CC5(C4)CN(CC4CCN(c6ccc7c(c6)CN(C6CCC(=O)NC6=O)C7=O)CC4)C5)n3)c(=O)c2c1 (some centres unmarked)	35 to 70%
N#Cc1c(NS(=O)(=O)N2CC[C@@H](F)C2)ccc(F)c1Oc1ccc2ncn(-c3ccc(N4CCC(CN5CC(c6ccc7c(c6)CN([C@H]6CCC(=O)NC6=O)C7=O)C5)CC4)cc3)c(=O)c2c1	≤ 35%
N#Cc1c(NS(=O)(=O)N2CC[C@@H](F)C2)ccc(F)c1Oc1ccc2ncn(-c3ccc(N4CC5(CCN(CC6CCN(c7ccc8c(c7)CN([C@@H]7CCC(=O)NC7=O)C8=O)CC6)CC5)C4)cc3)c(=O)c2c1	35 to 70%
N#Cc1c(NS(=O)(=O)N2CC[C@@H](F)C2)ccc(F)c1Oc1ccc2ncn(-c3ccc(N4CCC(COCC5CCN(c6ccc7c(c6)C(=O)N(C6CCC(=O)NC6=O)C7=O)CC5)CC4)nc3)c(=O)c2c1 (some centres unmarked)	≤ 35%

Please find the next compound below.
Bench note, B-RAF G466V (Homo sapiens, UniProt P15056, G466V): entry C[C@H]1CN(CC2CCN(c3ccc4c(c3)CN([C@H]3CCC(=O)NC3=O)C4=O)CC2)CCN1c1ccc(-n2cnc3ccc(Oc4c(F)ccc(NS(=O)(=O)N5CC[C@@H](F)C5)c4C#N)cc3c2=O)cc1 , its Dmax = 35 to 70%

---

Here, each record is paired with measured Dmax data.
Target: B-RAF V600E (Homo sapiens, UniProt P15056, V600E)
Construct: expressed in transfected cells; host or cells: T-Rex 293 cells (Invitrogen #R71007)
Sequence (P15056 whole entry V600E): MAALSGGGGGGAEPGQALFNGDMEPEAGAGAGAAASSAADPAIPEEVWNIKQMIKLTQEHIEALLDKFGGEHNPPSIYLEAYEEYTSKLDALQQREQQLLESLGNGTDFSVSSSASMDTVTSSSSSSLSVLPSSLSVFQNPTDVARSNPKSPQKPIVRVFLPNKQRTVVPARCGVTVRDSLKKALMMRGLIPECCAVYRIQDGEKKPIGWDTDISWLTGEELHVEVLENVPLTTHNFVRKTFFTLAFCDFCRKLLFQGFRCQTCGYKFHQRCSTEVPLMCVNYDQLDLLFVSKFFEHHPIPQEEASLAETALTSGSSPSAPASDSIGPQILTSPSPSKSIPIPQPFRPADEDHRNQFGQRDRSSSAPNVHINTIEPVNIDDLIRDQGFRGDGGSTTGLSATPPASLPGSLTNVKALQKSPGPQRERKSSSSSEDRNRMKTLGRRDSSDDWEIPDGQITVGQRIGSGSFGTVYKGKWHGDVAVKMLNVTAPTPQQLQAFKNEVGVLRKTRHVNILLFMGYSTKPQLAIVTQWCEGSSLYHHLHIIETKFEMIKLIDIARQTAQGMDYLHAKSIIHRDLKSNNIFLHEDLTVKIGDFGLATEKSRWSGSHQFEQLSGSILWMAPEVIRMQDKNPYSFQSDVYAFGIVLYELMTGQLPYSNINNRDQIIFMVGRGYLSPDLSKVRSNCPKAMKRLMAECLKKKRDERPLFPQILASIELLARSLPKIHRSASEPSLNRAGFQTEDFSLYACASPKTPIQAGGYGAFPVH
Assay: Target protein degradation, assay C: T-Rex 293 cells, HA-BRAF_V600E, 384 well format
Format: cell-based
Conditions: T-REx-293, Assay C, T-Rex 293 HA-BRAF_V600E cells, 24 hours, Examples 83-269

Below, each entry is followed by its recorded Dmax result.
compound	result
N#Cc1c(NS(=O)(=O)N2CC[C@@H](F)C2)ccc(F)c1Oc1ccc2ncn(-c3cccc(C4CCN(CC5CCN(c6ccc7c(c6)CN([C@H]6CCC(=O)NC6=O)C7=O)CC5)CC4)c3)c(=O)c2c1	≥ 70%
N#Cc1c(NS(=O)(=O)N2CC[C@H](F)C2)ccc(F)c1Oc1ccc2ncn(-c3ccc(N4CCN(CC5CN(c6ccc7c(c6)CN([C@H]6CCC(=O)NC6=O)C7=O)C5)CC4)cc3)c(=O)c2c1	≤ 35%
COc1cc(N2CC(CN3CCN(c4ccc(-n5cnc6ccc(Oc7c(F)ccc(NS(=O)(=O)N8CC[C@@H](F)C8)c7C#N)cc6c5=O)cc4)CC3)C2)cc2c1C(=O)N([C@H]1CCC(=O)NC1=O)C2	35 to 70%
N#Cc1c(NS(=O)(=O)N2CC[C@@H](F)C2)ccc(F)c1Oc1ccc2ncn(-c3ccc(N4CCN(CC5CCN(c6cc7c(c(OC(F)(F)F)c6)C(=O)N(C6CCC(=O)NC6=O)C7)CC5)CC4)cc3)c(=O)c2c1 (stereo partly drawn)	35 to 70%

Record N#Cc1c(NS(=O)(=O)N2CC[C@@H](F)C2)ccc(F)c1Oc1ccc2ncn(-c3ccc(N4CCN(CC5CCN(c6ccc7c(c6)CN(C6CCC(=O)NC6=O)C7=O)CC5)CC4)cn3)c(=O)c2c1 (stereo partly drawn) . Reported Dmax: 35 to 70%

Sample N#Cc1c(NS(=O)(=O)N2CC[C@@H](F)C2)ccc(F)c1Oc1ccc2ncn(-c3ccc(N4CCC(CN5CCC6(CC5)CCN(c5ccc7c(c5)C(=O)N(C5CCC(=O)NC5=O)C7=O)CC6)CC4)nc3)c(=O)c2c1 (stereo partly drawn) ; Dmax observed: 35 to 70%

The recorded Dmax for entry N#Cc1c(NS(=O)(=O)N2CC[C@@H](F)C2)ccc(F)c1Oc1ccc2ncn(-c3ccc(N4CCN(CC5CCN(c6ccc7c(c6)CN([C@@H]6CCC(=O)NC6=O)C7=O)CC5)CC4)cc3)c(=O)c2c1 equals 35 to 70%

Entry Cn1c(=O)n(C2CCC(=O)NC2=O)c2cccc(N3CC4(CC(CN5CCN(c6ccc(-n7cnc8ccc(Oc9c(F)ccc(NS(=O)(=O)N%10CC[C@@H](F)C%10)c9C#N)cc8c7=O)cc6)CC5)C4)C3)c21 (stereo partly drawn) ; Dmax = 35 to 70%

Form field Dmax, entry COCCN(CC1CCN(c2ccc(-n3cnc4ccc(Oc5c(F)ccc(NS(=O)(=O)N6CC[C@@H](F)C6)c5C#N)cc4c3=O)cc2)CC1)[C@H]1C[C@@H](Oc2ccc3c(c2)CN([C@H]2CCC(=O)NC2=O)C3=O)C1 : 35 to 70%

For record CC(C)(C1CCN(c2ncc(-n3cnc4ccc(Oc5c(F)ccc(NS(=O)(=O)N6CC[C@@H](F)C6)c5C#N)cc4c3=O)cn2)CC1)N1CCN(c2ccc3c(c2)C(=O)N(C2CCC(=O)NC2=O)C3=O)CC1 (stereo partly drawn) the listed Dmax is 35 to 70%

Recorded result, CCN(CC1CCN(c2ccc(-n3cnc4ccc(Oc5c(F)ccc(NS(=O)(=O)N6CC[C@@H](F)C6)c5C#N)cc4c3=O)cc2)CC1)[C@H]1C[C@@H](Oc2ccc3c(c2)CN([C@H]2CCC(=O)NC2=O)C3=O)C1 , Dmax: 35 to 70%

Value of Dmax reported for the compound Cc1cc(N2CCC(CN3CCN(c4ccc(-n5cnc6ccc(Oc7c(F)ccc(NS(=O)(=O)N8CC[C@@H](F)C8)c7C#N)cc6c5=O)cc4)CC3)CC2)c(F)c2c1C(=O)N(C1CCC(=O)NC1=O)C2 (single isomer, unassigned) [Example 120] is ≤ 35%
